Cited source: the supplement of paper PMC11061612

- System: IHH-4 (Thyroid Gland Carcinoma)
- EXPERIMENTAL_PROTOCOL: combination Emax (second highest fraction inhibited in the dose matrix, 72 h); higher = more inhibition; extreme values may be limits of the assay
MEASURED_ATTRIBUTE: combination Emax

COMPOUND: CC1(C)CCC(CN2CCN(c3ccc(C(=O)NS(=O)(=O)c4ccc(NCC5CCOCC5)c([N+](=O)[O-])c4)c(Oc4cnc5[nH]ccc5c4)c3)CC2)=C(c2ccc(Cl)cc2)C1 [Venetoclax] + C=CCn1c(=O)c2cnc(Nc3ccc(N4CCN(C)CC4)cc3)nc2n1-c1cccc(C(C)(C)O)n1 [AZD1775] (first compound max 1 µM, partner max 1 µM)
MEASURED_ATTRIBUTE: combination Emax
EXPERIMENTAL_VALUE: 0.711

COMPOUND: Cc1nc(-c2cn3c(n2)-c2ccc(-c4cnn(C(C)(C)C(N)=O)c4)cc2OCC3)n(C(C)C)n1 [Taselisib] + O=C(Nc1ccc2[nH]nc(-c3ccncc3)c2c1)[C@@H]1CCN(CC(=O)N2CCN(c3ccc(-c4ncccn4)cc3)CC2)C1 [SCH772984] (first compound max 10 µM, 7x7, partner max 5 µM)
MEASURED_ATTRIBUTE: combination Emax
EXPERIMENTAL_VALUE: 0.73

COMPOUND: CN(CCO)CC[C@H](CSc1ccccc1)Nc1ccc(S(=O)(=O)NC(=O)c2ccc(N3CCC([C@@H](O)c4ccccc4-c4ccc(Cl)cc4)CC3)cc2)cc1S(=O)(=O)C(F)(F)F [AZD4320] + Cn1cnc2c(F)c(Nc3ccc(Br)cc3Cl)c(C(=O)NOCCO)cc21 [Selumetinib] (first compound max 1 µM, 7x7, partner max 3 µM)
MEASURED_ATTRIBUTE: combination Emax
EXPERIMENTAL_VALUE: 0.58

COMPOUND: Cc1cc2ncnn2cc1Nc1ncc2c(n1)n(C1CCOCC1)c(=O)n2C [AZD7648] + CN(C)CCCOc1ccc(-c2ccc3ncc4c(c3c2)n(C2CCOCC2)c(=O)n4C)cn1 [AZD0156] (first compound max 10 µM, 7x7, partner max 1 µM)
MEASURED_ATTRIBUTE: combination Emax
EXPERIMENTAL_VALUE: 0.329

COMPOUND: NC1(C(=O)N[C@@H](CCO)c2ccc(Cl)cc2)CCN(c2ncnc3[nH]ccc23)CC1 [Capivasertib] + C[C@@H]1COCCN1C2=NC(=NC(=C2)C3(CC3)[S@](=N)(=O)C)C4=C5C=CNC5=NC=C4 [AZD6738] (first compound max 10 µM, 7x7, partner max 10 µM)
MEASURED_ATTRIBUTE: combination Emax
EXPERIMENTAL_VALUE: 0.859

---

- System: KARPAS-620 (Plasma Cell Myeloma)
- EXPERIMENTAL_PROTOCOL: combination Emax (second highest fraction inhibited in the dose matrix, 72 h); higher = more inhibition; extreme values may be limits of the assay
MEASURED_ATTRIBUTE: combination Emax

COMPOUND: CS(=O)(=O)CCNCc1ccc(-c2ccc3ncnc(Nc4ccc(OCc5cccc(F)c5)c(Cl)c4)c3c2)o1 [Lapatinib] + NC1(c2ccc(-c3nc4ccn5c(=O)[nH]nc5c4cc3-c3ccccc3)cc2)CCC1 [MK-2206] (first compound max 10 µM, 7x7, partner max 10 µM)
MEASURED_ON: KARPAS-620 (Plasma Cell Myeloma)
MEASURED_ATTRIBUTE: combination Emax
EXPERIMENTAL_VALUE: 0.928
//
COMPOUND: COc1cccc(OCCCN)c1-c1cc(Nc2cnc(C#N)cn2)n[nH]1 [Prexasertib] + CCc1c2c(nc3ccc(O)cc13)-c1cc3c(c(=O)n1C2)COC(=O)[C@]3(O)CC [SN-38] (first compound max 1 µM, 7x7, partner max 0.3 µM)
MEASURED_ON: KARPAS-620 (Plasma Cell Myeloma)
MEASURED_ATTRIBUTE: combination Emax
EXPERIMENTAL_VALUE: 0.889
//
COMPOUND: COc1cccc(OCCCN)c1-c1cc(Nc2cnc(C#N)cn2)n[nH]1 [Prexasertib] + C[C@@H]1COCCN1C2=NC(=NC(=C2)C3(CC3)[S@](=N)(=O)C)C4=C5C=CNC5=NC=C4 [AZD6738] (first compound max 1 µM, 7x7, partner max 10 µM)
MEASURED_ON: KARPAS-620 (Plasma Cell Myeloma)
MEASURED_ATTRIBUTE: combination Emax
EXPERIMENTAL_VALUE: 0.856

---

- Test system: MDA-MB-157 (Breast Carcinoma)
- EXPERIMENTAL_PROTOCOL: combination Emax (second highest fraction inhibited in the dose matrix, 72 h); higher = more inhibition; extreme values may be limits of the assay
Give 1 when the value for combination Emax is at least 0.3. Give 0 when it is less.

COMPOUND: N#Cc1cnc(Nc2cc(NC[C@H]3CNCCO3)c(C(F)(F)F)cn2)cn1 [SRA737] + O=c1[nH]cc(F)c(=O)[nH]1 [5-Fluorouracil] (first compound max 10 µM, 7x7, partner max 20 µM)
CLASS_LABEL: 1

COMPOUND: COc1nnc2ccc(N3CCC(c4ccc(OCCN5CCN(C)C(=O)[C@H]5C)cc4)CC3)nn12 [AZD5153] + CC1(C)CCC(CN2CCN(c3ccc(C(=O)NS(=O)(=O)c4ccc(NCC5CCOCC5)c([N+](=O)[O-])c4)c(Oc4cnc5[nH]ccc5c4)c3)CC2)=C(c2ccc(Cl)cc2)C1 [Venetoclax] (first compound max 1 µM, 7x7, partner max 1 µM)
CLASS_LABEL: 1

COMPOUND: NC1(C(=O)N[C@@H](CCO)c2ccc(Cl)cc2)CCN(c2ncnc3[nH]ccc23)CC1 [Capivasertib] + CC(=O)c1c(C)c2cnc(Nc3ccc(N4CCNCC4)cn3)nc2n(C2CCCC2)c1=O [Palbociclib] (first compound max 10 µM, 7x7, partner max 10 µM)
CLASS_LABEL: 0

COMPOUND: CCN(CCO)CCCOc1ccc2c(Nc3cc(CC(=O)Nc4cccc(F)c4)[nH]n3)ncnc2c1 [AZD2811] + O=C(c1cc(Cc2n[nH]c(=O)c3ccccc23)ccc1F)N1CCN(C(=O)C2CC2)CC1 [Olaparib] (first compound max 1 µM, 7x7, partner max 10 µM)
CLASS_LABEL: 0

COMPOUND: CN(CCO)CC[C@H](CSc1ccccc1)Nc1ccc(S(=O)(=O)NC(=O)c2ccc(N3CCC([C@@H](O)c4ccccc4-c4ccc(Cl)cc4)CC3)cc2)cc1S(=O)(=O)C(F)(F)F [AZD4320] + Cn1cnc2c(F)c(Nc3ccc(Br)cc3Cl)c(C(=O)NOCCO)cc21 [Selumetinib] (first compound max 1 µM, 7x7, partner max 3 µM)
CLASS_LABEL: 1

COMPOUND: CN(C)CCCOc1ccc(-c2ccc3ncc4c(c3c2)n(C2CCOCC2)c(=O)n4C)cn1 [AZD0156] + CCN(CCO)CCCOc1ccc2c(Nc3cc(CC(=O)Nc4cccc(F)c4)[nH]n3)ncnc2c1 [AZD2811] (first compound max 1 µM, 7x7, partner max 1 µM)
CLASS_LABEL: 0

---

- Tested on: DOV13 (Ovarian Carcinoma)
- EXPERIMENTAL_PROTOCOL: combination Emax (second highest fraction inhibited in the dose matrix, 72 h); higher = more inhibition; extreme values may be limits of the assay
Listed below: combination Emax values for each entry.

MOLECULE: CN(C)CCCOc1ccc(-c2ccc3ncc4c(c3c2)n(C2CCOCC2)c(=O)n4C)cn1 [AZD0156] + C=CCn1c(=O)c2cnc(Nc3ccc(N4CCN(C)CC4)cc3)nc2n1-c1cccc(C(C)(C)O)n1 [AZD1775] (first compound max 1 µM, partner max 1 µM)
MEASURED_ON: DOV13 (Ovarian Carcinoma)
combination Emax: 0.814
//
MOLECULE: CN(CCO)CC[C@H](CSc1ccccc1)Nc1ccc(S(=O)(=O)NC(=O)c2ccc(N3CCC([C@@H](O)c4ccccc4-c4ccc(Cl)cc4)CC3)cc2)cc1S(=O)(=O)C(F)(F)F [AZD4320] + Cc1cc2ncnn2cc1Nc1ncc2c(n1)n(C1CCOCC1)c(=O)n2C [AZD7648] (first compound max 1 µM, 7x7, partner max 10 µM)
MEASURED_ON: DOV13 (Ovarian Carcinoma)
combination Emax: 0.779
//
MOLECULE: C[C@@H]1COCCN1c1cc(C2([S@](C)(=N)=O)CC2)nc(-c2ccnc3[nH]ccc23)n1 [AZD6738] + C1CC(C1)(C(=O)[O-])C(=O)[O-].N.N.[Pt+2] [Carboplatin] (first compound max 10 µM, 7x7, partner max 10 µM)
MEASURED_ON: DOV13 (Ovarian Carcinoma)
combination Emax: 0.818

---

- System: MDA-MB-231 (Breast Carcinoma)
- EXPERIMENTAL_PROTOCOL: combination Emax (second highest fraction inhibited in the dose matrix, 72 h); higher = more inhibition; extreme values may be limits of the assay

MOLECULE: C=CCn1c(=O)c2cnc(Nc3ccc(N4CCN(C)CC4)cc3)nc2n1-c1cccc(C(C)(C)O)n1 [AZD1775] + C1CN(CCC1(C(=O)N[C@@H](CCO)C2=CC=C(C=C2)Cl)N)C3=NC=NC4=C3C=CN4 [Capivasertib] (first compound max 3 µM, partner max 3 µM)
combination Emax: 0.624
--
MOLECULE: COc1cccc(OCCCN)c1-c1cc(Nc2cnc(C#N)cn2)n[nH]1 [Prexasertib] + CN(C)CCCOc1ccc(-c2ccc3ncc4c(c3c2)n(C2CCOCC2)c(=O)n4C)cn1 [AZD0156] (first compound max 1 µM, 7x7, partner max 1 µM)
combination Emax: 0.743
--
MOLECULE: CC(=O)c1c(C)c2cnc(Nc3ccc(N4CCNCC4)cn3)nc2n(C2CCCC2)c1=O [Palbociclib] + Cn1cnc2c(F)c(Nc3ccc(Br)cc3Cl)c(C(=O)NOCCO)cc21 [Selumetinib] (first compound max 10 µM, 7x7, partner max 10 µM)
combination Emax: 0.64
